Target: androgen receptor (Homo sapiens)
Sequence (P10275 1-920): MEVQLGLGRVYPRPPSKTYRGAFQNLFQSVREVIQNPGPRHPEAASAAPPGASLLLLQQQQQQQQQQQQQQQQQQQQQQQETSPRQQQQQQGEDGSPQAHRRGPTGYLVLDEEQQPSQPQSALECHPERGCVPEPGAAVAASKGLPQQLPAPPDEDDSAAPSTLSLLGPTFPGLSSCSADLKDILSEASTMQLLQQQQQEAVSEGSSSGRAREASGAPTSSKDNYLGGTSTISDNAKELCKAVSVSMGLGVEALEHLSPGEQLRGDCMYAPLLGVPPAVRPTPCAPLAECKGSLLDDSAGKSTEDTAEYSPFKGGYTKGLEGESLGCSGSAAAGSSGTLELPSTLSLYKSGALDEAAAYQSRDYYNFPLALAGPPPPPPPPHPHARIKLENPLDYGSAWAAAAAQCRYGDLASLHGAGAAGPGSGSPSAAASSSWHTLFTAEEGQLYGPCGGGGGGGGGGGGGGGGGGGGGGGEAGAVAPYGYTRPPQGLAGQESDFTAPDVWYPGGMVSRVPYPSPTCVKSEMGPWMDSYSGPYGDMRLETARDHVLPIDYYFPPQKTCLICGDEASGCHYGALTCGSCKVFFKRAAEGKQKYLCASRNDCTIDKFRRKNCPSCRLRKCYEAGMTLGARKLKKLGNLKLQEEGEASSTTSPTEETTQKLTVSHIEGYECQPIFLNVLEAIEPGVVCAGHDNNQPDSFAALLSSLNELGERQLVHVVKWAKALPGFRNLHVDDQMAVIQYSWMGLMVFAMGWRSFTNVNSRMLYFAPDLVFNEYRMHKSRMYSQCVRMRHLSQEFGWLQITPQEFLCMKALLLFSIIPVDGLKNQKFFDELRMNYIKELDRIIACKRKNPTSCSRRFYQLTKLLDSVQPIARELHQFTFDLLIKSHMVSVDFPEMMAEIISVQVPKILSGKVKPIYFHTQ
Format: cell-based
Parameters: expressed in transfected cells
Text: We used a mammalian two-hybrid system to determine specificities of the AR-binding peptides previously identified, through screening of the aforementioned yeast library, as ligand-dependent in their binding activity. Ligand was provided to the cells so the interaction could be observed. The human hepatoma cell line, Huh-7, was used as the recipient of two-hybrid vectors, pM and pVP16 (Clontech) (FIGS. 6A and 6B), containing fusions with peptide and AR, respectively. […]
A collection of substances and their measured Mammalian Cell Specificity Graph (FIG. 4): CYP.
Assay metric: Mammalian Cell Specificity Graph (FIG. 4): CYP.

substance="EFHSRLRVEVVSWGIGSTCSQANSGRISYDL* [B8H3]" assayed_target="androgen receptor (Homo sapiens)" assay_result="10.47 Relative Light Units"
substance="HPTHSSRLWELLMEATPTM [D30]" assayed_target="androgen receptor (Homo sapiens)" assay_result="11.18 Relative Light Units"
substance="EFRSSVFEQMYLCTGGSLDLOPS* [B5G11]" assayed_target="androgen receptor (Homo sapiens)" assay_result="4.462 Relative Light Units"
substance="EFQQCMCAEVKSWLGGSLDLOPS* [B8E9]" assayed_target="androgen receptor (Homo sapiens)" assay_result="16.02 Relative Light Units"

Where do these numbers come from? They come from patent US20040043420A1.
